- Tested system: Human IP6K1 (Homo sapiens)
- Construct: GST (N, cleaved yes); made in house; host or cells: C43 E. coli, pGEX-6P-2
- Sequence (Q92551 whole entry): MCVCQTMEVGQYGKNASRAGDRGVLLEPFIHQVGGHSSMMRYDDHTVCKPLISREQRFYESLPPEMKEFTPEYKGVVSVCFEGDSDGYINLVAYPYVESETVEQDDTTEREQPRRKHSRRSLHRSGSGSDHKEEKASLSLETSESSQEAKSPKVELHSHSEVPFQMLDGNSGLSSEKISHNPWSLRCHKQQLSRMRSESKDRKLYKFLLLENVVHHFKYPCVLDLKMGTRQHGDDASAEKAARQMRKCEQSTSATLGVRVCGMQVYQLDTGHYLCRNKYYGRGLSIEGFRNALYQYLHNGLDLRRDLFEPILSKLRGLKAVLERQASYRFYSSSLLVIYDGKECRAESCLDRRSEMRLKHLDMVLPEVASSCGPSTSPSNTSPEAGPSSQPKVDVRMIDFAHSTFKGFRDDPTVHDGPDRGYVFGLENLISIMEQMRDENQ
- Experimental details: IP6K1 high-throughput screen of the Sigma LOPAC (ADP-Glo Max, single point);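 also: final compound concentration 10µM in 5% DMSO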
- Format: biochemical
- Protocol conditions: Sigma LOPAC single-point screen, ADP-Glo Max raw signal per well
Counter-ions that a name gives are not always drawn.
Lab note: compare Raw Signal with 60000, writing satisfied if less and not satisfied if equal or more.

COc1cc2nc(N3CCN(C(=O)C4COc5ccccc5O4)CC3)nc(N)c2cc1OC (centres unmarked) [Doxazosin mesylate]; satisfied

Q: Hi there! Is Raw Signal for `COc1ccc2c(c1)c(CC(=O)O)c(C)n2Cc1ccc(Cl)cc1` below 60000, do you know?
Result: not satisfied

Q: Hi there! Is Raw Signal for C[C@@H]1O[C@@H](O[C@H]2C[C@@H](O)[C@]3(CO)[C@H]4[C@H](O)C[C@]5(C)[C@@H](C6=CC(=O)OC6)CC[C@]5(O)[C@@H]4CC[C@]3(O)C2)[C@H](O)[C@H](O)[C@H]1O [Ouabain] below 60000, do you know?
Result: satisfied

Q: Hi there! Is Raw Signal for CC(=O)NBr [N-Bromoacetamide] below 60000, do you know?
Result: not satisfied

Q: Hi there! Is Raw Signal for `Cl.NC1(C(=O)O)CC1` below 60000, do you know?
Result: not satisfied

Q: Hi there! Is Raw Signal for O=C(O)c1ccccc1Nc1ccccc1 [N-Phenylanthranilic acid] below 60000, do you know?
Result: not satisfied
